- Test system: RSV
- assay_explanation: XTT assay, RSV-infected Hep-2 cells
- Assay type: cell-based, Respiratory Syncytial Virus (RSV)
- settings: human respiratory syncytial virus, 144 h; Table 2, Examples 75 to 82 and 125 to 184; Hep-2 cells infected with RSV, 6 days at 37° C.
Field: IC50. Provide a value for each of the molecules that follow.
One number for each entry, in µM.

INSERT INTO measurements (molecule, test_value) VALUES
  ('COc1cc([N+](=O)[O-])ccc1C(=O)N(C)C1N=C(c2ccccc2)c2ccccc2NC1=O (centres unmarked)', 15.9),
  ('O=C(Nc1cccs1)NC1N=C(c2ccccc2)c2ccccc2NC1=O (centres unmarked)', 3.4),
  ('CC(C)(C)OC(=O)NC1N=C(c2ccccc2)c2ccccc2NC1=O (centres unmarked)', 4.3),
  ('O=C(NC1N=C(c2ccccc2)c2ccccc2NC1=O)c1ccccc1O (centres unmarked) [Example 80a]', 8.7),
  ('O=C(CC(O)c1ccccc1)NC1N=C(c2ccccc2)c2ccccc2NC1=O (centres unmarked)', 1.9),
  ('O=C(NC1N=C(c2ccccc2)c2ccccc2NC1=O)C(=O)c1cccs1 (centres unmarked)', 9.5),
  ('CCOc1ccc(C(C)=O)cc1C(=O)N[C@H]1N=C(c2ccccc2)c2ccccc2NC1=O [Example 76b]', 1.2),
  ('O=C(NC1N=C(c2ccccc2)c2ccccc2NC1=O)c1cn[nH]c1 (centres unmarked)', 8.3);

Hi team, please reply with IC50 for each item in this list.
1. O=C(NC1N=C(c2ccccc2)c2ccccc2NC1=O)c1cccc2c1C(=O)c1ccccc1-2 (centres unmarked)
2. O=C(N[C@H]1N=C(c2ccccc2)c2ccccc2NC1=O)c1cc(F)cc2c1OCOC2 [Example 77b]
3. O=C(NC1N=C(c2ccccc2)c2ccccc2NC1=O)C(O)Cc1ccccc1 (centres unmarked)
4. O=C(NC1N=C(c2ccccc2)c2ccccc2NC1=O)c1ccccc1I (centres unmarked)
5. CC(C)(C)NC(=O)NC1N=C(c2ccccc2)c2ccccc2NC1=O (centres unmarked)

4.3
0.5
5.5
8.3
5
